From: paper PMC6930500

Molecular target: human DOR (Homo sapiens)
Construct: expressed in transfected cells; cell lines provided by Professor Lawrence Toll
Sequence (P41143 whole entry): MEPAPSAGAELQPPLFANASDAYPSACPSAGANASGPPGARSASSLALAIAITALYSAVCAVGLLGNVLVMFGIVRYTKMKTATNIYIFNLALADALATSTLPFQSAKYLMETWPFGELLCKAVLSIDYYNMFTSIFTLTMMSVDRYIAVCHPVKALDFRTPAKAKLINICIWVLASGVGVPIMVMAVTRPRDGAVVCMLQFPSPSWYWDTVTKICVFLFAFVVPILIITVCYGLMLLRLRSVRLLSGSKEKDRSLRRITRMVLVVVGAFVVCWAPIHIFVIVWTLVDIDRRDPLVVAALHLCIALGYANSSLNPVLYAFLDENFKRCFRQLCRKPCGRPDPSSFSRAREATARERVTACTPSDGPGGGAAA
Assay: [3H]-diprenorphine competitive displacement binding, DOR
Conditions: membranes from CHO cells expressing human DOR; mean (SEM), n>=3 in duplicate
pKi: −log10 of the molar value.
A collection of compounds and their measured pKi

- compound: "Cc1cc(O)cc(C)c1C[C@H](N)C(=O)N1CCc2ccc(Cc3cccc4ccncc34)cc2C1 [Compound 8r]"
  pKi: 9.16
- compound: "Cc1cc(O)cc(C)c1C[C@H](N)C(=O)N1CCc2ccc(Cc3cncc4ccccc34)cc2C1 [Compound 8v]"
  pKi: 9.52
- compound: "Cc1cc(O)cc(C)c1C[C@H](N)C(=O)N1CCc2ccc(Cc3ccnc4ccccc34)cc2C1 [Compound 8u]"
  pKi: 9.10
- compound: "Cc1cc(O)cc(C)c1C[C@H](N)C(=O)N1CCc2ccc(Cc3cccnc3)cc2C1 [Compound 8j]"
  pKi: 8.82
- compound: "COc1ccccc1Cc1ccc2c(c1)CN(C(=O)[C@@H](N)Cc1c(C)cc(O)cc1C)CC2 [Compound 8a]"
  pKi: 8.57
- compound: "Cc1cc(O)cc(C)c1C[C@H](N)C(=O)N1CCc2ccc(CN3CCCCC3)cc2C1 [Compound 8l]"
  pKi: 7.06
- compound: "Cc1cc(O)cc(C)c1C[C@H](N)C(=O)N1CCc2ccc(CN3CCc4ccccc4C3)cc2C1 [Compound 8w]"
  pKi: 8.64
- compound: "Cc1cc(O)cc(C)c1C[C@H](N)C(=O)N1CCc2ccc(CN3Cc4ccccc4C3)cc2C1 [Compound 8z]"
  pKi: 8.89
- compound: "Cc1cc(O)cc(C)c1C[C@H](N)C(=O)N1CCc2ccc(Cc3ccc4ccccc4c3)cc2C1 [Compound 8p]"
  pKi: 8.46
- compound: "Cc1cc(O)cc(C)c1C[C@H](N)C(=O)N1CCc2ccc(Cc3cccc4cnccc34)cc2C1 [Compound 8s]"
  pKi: 8.92
- compound: "Cc1cc(O)cc(C)c1C[C@H](N)C(=O)N1CCc2ccc(CN3CCOCC3)cc2C1 [Compound 8n]"
  pKi: 8.25
- compound: "Cc1cc(O)cc(C)c1C[C@H](N)C(=O)N1CCc2ccc(Cc3ccncc3)cc2C1 [Compound 8k]"
  pKi: 8.59
- compound: "Cc1cc(O)cc(C)c1C[C@H](N)C(=O)N1CCc2ccc(Cc3ccccc3O)cc2C1 [Compound 8b]"
  pKi: 8.60
- compound: "Cc1cc(O)cc(C)c1C[C@H](N)C(=O)N1CCc2ccc(Cc3cccc(C(F)(F)F)c3)cc2C1 [Compound 8g]"
  pKi: 8.80
- compound: "Cc1cc(O)cc(C)c1C[C@H](N)C(=O)N1CCc2ccc(CN3CCc4ccccc43)cc2C1 [Compound 8y]"
  pKi: 8.77
- compound: "Cc1cc(O)cc(C)c1C[C@H](N)C(=O)N1CCc2ccc(Cc3cccc4cccnc34)cc2C1 [Compound 8q]"
  pKi: 9.34
- compound: "COc1cccc(Cc2ccc3c(c2)CN(C(=O)[C@@H](N)Cc2c(C)cc(O)cc2C)CC3)c1 [Compound 8e]"
  pKi: 8.77
- compound: "Cc1cc(O)cc(C)c1C[C@H](N)C(=O)N1CCc2ccc(CN3CCCc4ccccc43)cc2C1 [Compound 8x]"
  pKi: 8.18
- compound: "Cc1cc(O)cc(C)c1C[C@H](N)C(=O)N1CCc2ccc(Cc3cccc(O)c3)cc2C1 [Compound 8f]"
  pKi: 8.85
- compound: "Cc1cc(O)cc(C)c1C[C@H](N)C(=O)N1CCc2ccc(Cc3ccccc3C#N)cc2C1 [Compound 8d]"
  pKi: 8.44
- compound: "Cc1cccc(Cc2ccc3c(c2)CN(C(=O)[C@@H](N)Cc2c(C)cc(O)cc2C)CC3)c1C [Compound 8i]"
  pKi: 8.44
- compound: "Cc1cc(O)cc(C)c1C[C@H](N)C(=O)N1CCc2ccc(Cc3cccc4ccccc34)cc2C1 [Compound 8o]"
  pKi: 8.49
- compound: "Cc1cc(O)cc(C)c1C[C@H](N)C(=O)N1CCc2ccc(Cc3cccc4ncccc34)cc2C1 [Compound 8t]"
  pKi: 8.92
- compound: "Cc1cc(O)cc(C)c1C[C@H](N)C(=O)N1CCc2ccc(CN3CCCC3)cc2C1 [Compound 8m]"
  pKi: 6.76
- compound: "Cc1cc(O)cc(C)c1C[C@H](N)C(=O)N1CCc2ccc(Cc3ccccc3C(F)(F)F)cc2C1 [Compound 8c]"
  pKi: 8.31
